Data provenance: ChEMBL document CHEMBL1961873

Entries and their inhibition values follow.
System: MAP kinase-activated protein kinase 2 (Homo sapiens) (UniProt P49137);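 also: figures are mean inhibition values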
Sequence (P49137 whole entry, looked up): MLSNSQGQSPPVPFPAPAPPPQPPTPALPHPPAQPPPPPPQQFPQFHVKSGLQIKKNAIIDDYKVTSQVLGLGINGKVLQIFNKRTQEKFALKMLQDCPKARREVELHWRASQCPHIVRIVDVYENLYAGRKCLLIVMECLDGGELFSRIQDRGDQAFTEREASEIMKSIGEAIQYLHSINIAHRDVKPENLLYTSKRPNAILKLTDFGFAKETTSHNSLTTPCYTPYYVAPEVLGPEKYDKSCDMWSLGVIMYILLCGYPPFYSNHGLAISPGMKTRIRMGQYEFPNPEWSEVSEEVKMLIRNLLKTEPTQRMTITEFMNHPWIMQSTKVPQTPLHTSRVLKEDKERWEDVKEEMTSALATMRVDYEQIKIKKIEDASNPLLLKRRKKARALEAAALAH
Recorded Conditions: at 0.1 µM
Number first, unit second.

[[record]]
structure = "COc1cccc(-n2ncc3c(N/N=C/c4ccncc4)ncnc32)c1"
measurement_name = "inhibition"
result = "2.5%"


Looking for the measured inhibition of `CCn1c(-c2nonc2N)nc2c(C#CC(C)(C)O)ncc(OCC3CCNCC3)c21` , can you help?
0.79%

Given the compound `COc1cc2c(cc1Nc1nc(Nc3ccsc3C(N)=O)c3cc[nH]c3n1)N(C(=O)CN(C)C)CCC2` , what is its reported inhibition?
-0.32%

Please report the recorded inhibition for `NC(=O)c1sc(-n2cnc3cc(C(F)(F)F)ccc32)cc1OCc1ccccc1Br` .
0.61%

Value lookup for inhibition; key = `Fc1ccc(-c2ncn(C3CCNCC3)c2-c2ccnc(Oc3ccccc3)n2)cc1`
0.07%

Which inhibition reading was recorded for the compound `NS(=O)(=O)c1ccc(-c2ccc3c(NC(=O)C4CC4)n[nH]c3c2)cc1` ?
1.09%

Fill in: inhibition of `CCn1c(-c2nonc2N)nc2c(C#CC(C)(C)O)ncc(OC[C@@H]3CCCN3)c21` is ___
-0.56%

So what does the record say about inhibition for `COc1cccc(COc2cc(-n3cnc4ccccc43)sc2C(N)=O)c1` ?
-0.08%

What value of inhibition has been reported for the following compound? `Cc1cc(-c2ccco2)cc(C)c1/C=C/c1cncc(-c2nn[nH]n2)c1`
0.52%

Using the record for `CCn1c(-c2nonc2N)nc2c(C#CC(C)(C)O)nc(O[C@@H](CN)c3ccccc3)cc21` , report its inhibition.
-0.97%

Requested read-out: inhibition. Entry: `Nc1nonc1-c1nc2cnccc2n1C1CCCCC1`
-1.18%

* * *

System: Tyrosine-protein kinase receptor UFO (Homo sapiens)
Recorded Conditions: at 1 µM
Description: GSK_PKIS: AXL mean inhibition at 1 uM [Nanosyn]
Quick reference: inhibition of the listed items.
// units = %; emit number, no label

Example results:
[[record]]
structure = "CCn1c(-c2nonc2N)nc2c(C#CC(C)(C)O)ncc(OCC3CCNCC3)c21"
system = "Tyrosine-protein kinase receptor UFO (Homo sapiens)"
recorded_number = -2.43

[[record]]
structure = "CCn1c(-c2nonc2N)nc2c(C#CCN)ncc(OCCCN)c21"
system = "Tyrosine-protein kinase receptor UFO (Homo sapiens)"
recorded_number = 7.15

[[record]]
structure = "COc1cc(C=NNc2ncnc3c2cnn3Cc2ccccc2)ccc1O"
system = "Tyrosine-protein kinase receptor UFO (Homo sapiens)"
recorded_number = 6.34


Now turn to the next compound.
Param readout = inhibition; param system = Tyrosine-protein kinase receptor UFO (Homo sapiens); param query = `COc1cccc(COc2cc(-n3cnc4ccccc43)sc2C(N)=O)c1` ; response: value
-0.71

* * *

System: Insulin-like growth factor 1 receptor (Homo sapiens) (UniProt P08069);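 also: values are mean percent inhibition of IGF1R kinase activity, from the GSK published kinase inhibitor set (PKIS) screening panel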
Sequence (P08069 31-736 limits assumed): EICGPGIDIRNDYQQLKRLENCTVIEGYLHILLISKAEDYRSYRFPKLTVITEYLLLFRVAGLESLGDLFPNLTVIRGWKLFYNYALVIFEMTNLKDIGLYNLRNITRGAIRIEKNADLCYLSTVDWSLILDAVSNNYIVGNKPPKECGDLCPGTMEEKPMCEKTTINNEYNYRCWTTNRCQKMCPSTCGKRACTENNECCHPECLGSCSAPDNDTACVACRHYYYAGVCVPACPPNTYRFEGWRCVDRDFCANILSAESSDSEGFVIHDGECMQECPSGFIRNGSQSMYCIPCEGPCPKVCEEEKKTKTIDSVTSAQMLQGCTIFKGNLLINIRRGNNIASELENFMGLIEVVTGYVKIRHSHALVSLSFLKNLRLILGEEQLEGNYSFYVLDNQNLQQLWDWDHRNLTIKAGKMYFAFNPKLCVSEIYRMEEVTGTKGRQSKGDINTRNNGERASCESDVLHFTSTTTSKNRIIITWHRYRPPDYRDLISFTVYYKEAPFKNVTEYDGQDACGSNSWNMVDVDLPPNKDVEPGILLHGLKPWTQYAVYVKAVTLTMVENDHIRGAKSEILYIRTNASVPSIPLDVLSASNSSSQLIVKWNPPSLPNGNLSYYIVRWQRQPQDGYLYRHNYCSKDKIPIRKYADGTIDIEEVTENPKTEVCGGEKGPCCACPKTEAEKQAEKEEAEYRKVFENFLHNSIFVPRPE
Sequence (P08069 741-1367 limits assumed): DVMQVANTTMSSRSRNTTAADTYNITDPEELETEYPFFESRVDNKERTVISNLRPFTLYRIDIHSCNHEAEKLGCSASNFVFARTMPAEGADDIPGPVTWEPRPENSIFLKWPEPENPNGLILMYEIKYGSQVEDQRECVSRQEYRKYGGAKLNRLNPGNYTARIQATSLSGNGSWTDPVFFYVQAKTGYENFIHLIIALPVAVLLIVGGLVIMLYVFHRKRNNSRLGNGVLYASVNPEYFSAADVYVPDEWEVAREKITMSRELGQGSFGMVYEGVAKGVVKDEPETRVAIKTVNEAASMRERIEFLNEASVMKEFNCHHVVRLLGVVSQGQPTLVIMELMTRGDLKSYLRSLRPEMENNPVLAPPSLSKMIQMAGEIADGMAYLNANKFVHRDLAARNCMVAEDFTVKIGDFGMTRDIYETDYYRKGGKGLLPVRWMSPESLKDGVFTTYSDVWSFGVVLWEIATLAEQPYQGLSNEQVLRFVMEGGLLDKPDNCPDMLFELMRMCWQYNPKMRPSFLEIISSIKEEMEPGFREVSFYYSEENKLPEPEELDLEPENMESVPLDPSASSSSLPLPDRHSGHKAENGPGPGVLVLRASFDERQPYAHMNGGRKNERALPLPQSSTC
Recorded Conditions: at 0.1 µM
Measurement Name: inhibition (%)
Report the value in % with no unit label.

[[record]]
structure = "COc1cc(C=NNc2ncnc3c2cnn3Cc2ccccc2)ccc1O"
system = "Insulin-like growth factor 1 receptor (Homo sapiens) (UniProt P08069)"
measurement_name = "inhibition"
units = "%"
recorded_number = -3.54

[[record]]
structure = "NS(=O)(=O)c1ccc(N/C=C2\\C(=O)Nc3ccc4ncsc4c32)cc1"
system = "Insulin-like growth factor 1 receptor (Homo sapiens) (UniProt P08069)"
measurement_name = "inhibition"
units = "%"
recorded_number = 16

[[record]]
structure = "COc1cccc(-n2ncc3c(N/N=C/c4ccncc4)ncnc32)c1"
system = "Insulin-like growth factor 1 receptor (Homo sapiens) (UniProt P08069)"
measurement_name = "inhibition"
units = "%"
recorded_number = 4.62

[[record]]
structure = "CCn1c(-c2nonc2N)nc2c(C#CC(C)(C)O)nc(O[C@@H](CN)c3ccccc3)cc21"
system = "Insulin-like growth factor 1 receptor (Homo sapiens) (UniProt P08069)"
measurement_name = "inhibition"
units = "%"
recorded_number = -2.18


Look at this compound and give its reported inhibition. `CCn1c(-c2nonc2N)nc2c(C#CC(C)(C)O)ncc(OC[C@@H]3CCCN3)c21`
-4.88

* * *

System: RAF proto-oncogene serine/threonine-protein kinase (Homo sapiens);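 also: values are mean CRAF kinase inhibition from profiling of the GSK Published Kinase Inhibitor Set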
Recorded Conditions: at 0.1 µM
Measurement Name: inhibition (%)
Could you give me the number in %? Just the number is fine.

Example compounds with recorded inhibition:
[[record]]
structure = "Fc1ccc(-c2ncn(C3CCNCC3)c2-c2ccnc(Oc3ccccc3)n2)cc1"
measurement_name = "inhibition"
units = "%"
recorded_number = -1.35

[[record]]
structure = "COc1cccc(-n2ncc3c(N/N=C/c4ccncc4)ncnc32)c1"
measurement_name = "inhibition"
units = "%"
recorded_number = -6.75

[[record]]
structure = "COc1cccc(COc2cc(-n3cnc4ccccc43)sc2C(N)=O)c1"
measurement_name = "inhibition"
units = "%"
recorded_number = 2.33

[[record]]
structure = "CCn1c(-c2nonc2N)nc2c(C#CC(C)(C)O)ncc(OCC3CCNCC3)c21"
measurement_name = "inhibition"
units = "%"
recorded_number = 3.07


Shifting focus to the compound that follows.
Tell me the measured inhibition of `NS(=O)(=O)c1ccc(-c2ccc3c(NC(=O)C4CC4)n[nH]c3c2)cc1` , please.
4.2

* * *

System: Protein kinase C eta type (Homo sapiens) (UniProt P24723);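 also: values are the mean percent inhibition of PKC-eta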
Sequence (P24723 whole entry): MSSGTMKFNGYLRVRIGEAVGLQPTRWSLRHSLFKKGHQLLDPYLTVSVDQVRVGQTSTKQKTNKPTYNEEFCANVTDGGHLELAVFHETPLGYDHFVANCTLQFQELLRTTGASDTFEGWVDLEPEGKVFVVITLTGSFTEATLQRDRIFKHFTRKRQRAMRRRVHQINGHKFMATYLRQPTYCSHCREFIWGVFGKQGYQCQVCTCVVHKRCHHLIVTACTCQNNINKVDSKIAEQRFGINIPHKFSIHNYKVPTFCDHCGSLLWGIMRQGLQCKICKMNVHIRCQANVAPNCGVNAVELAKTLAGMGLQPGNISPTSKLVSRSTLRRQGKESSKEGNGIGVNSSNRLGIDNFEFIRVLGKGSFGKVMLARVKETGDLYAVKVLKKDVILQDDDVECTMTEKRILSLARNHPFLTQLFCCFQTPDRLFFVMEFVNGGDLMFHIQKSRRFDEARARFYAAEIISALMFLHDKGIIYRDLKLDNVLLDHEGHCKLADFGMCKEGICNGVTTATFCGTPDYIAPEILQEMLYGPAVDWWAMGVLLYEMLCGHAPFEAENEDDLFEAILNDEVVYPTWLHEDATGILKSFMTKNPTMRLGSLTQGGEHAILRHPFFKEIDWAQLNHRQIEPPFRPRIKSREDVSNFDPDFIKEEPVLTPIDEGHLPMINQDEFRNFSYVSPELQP
Recorded Conditions: at 0.1 µM
Measurement Name: inhibition (%)
Please reply with the bare figure in % and do not write the unit itself.

Please review the following examples before continuing.
[[record]]
structure = "CCn1c(-c2nonc2N)nc2c(C#CC(C)(C)O)ncc(OC[C@@H]3CCCN3)c21"
recorded_number = 87.1

[[record]]
structure = "COc1cccc(COc2cc(-n3cnc4ccccc43)sc2C(N)=O)c1"
recorded_number = 0.43

[[record]]
structure = "COc1cc(C=NNc2ncnc3c2cnn3Cc2ccccc2)ccc1O"
recorded_number = -5.63

[[record]]
structure = "Nc1nonc1-c1nc2cnccc2n1C1CCCCC1"
recorded_number = 42.3


If you can, please state the reported inhibition value of `NS(=O)(=O)c1ccc(-c2ccc3c(NC(=O)C4CC4)n[nH]c3c2)cc1` .
3.31

Entry `Fc1ccc(-c2ncn(C3CCNCC3)c2-c2ccnc(Oc3ccccc3)n2)cc1` has what inhibition?
3.65

* * *

System: Platelet-derived growth factor receptor beta (Homo sapiens);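 also: each value is a mean percent inhibition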
Recorded Conditions: at 1 µM
Measurement Name: inhibition (%)
Report as a plain number; the unit % is understood.

[[record]]
structure = "COc1cccc(COc2cc(-n3cnc4ccccc43)sc2C(N)=O)c1"
recorded_number = 8.32

[[record]]
structure = "NS(=O)(=O)c1ccc(-c2ccc3c(NC(=O)C4CC4)n[nH]c3c2)cc1"
recorded_number = 5.87

[[record]]
structure = "Nc1nonc1-c1nc2cnccc2n1C1CCCCC1"
recorded_number = 26.4

[[record]]
structure = "CCn1c(-c2nonc2N)nc2c(C#CCN)ncc(OCCCN)c21"
recorded_number = 25.5

[[record]]
structure = "Fc1ccc(-c2ncn(C3CCNCC3)c2-c2ccnc(Oc3ccccc3)n2)cc1"
recorded_number = 5.68


Need inhibition of `Cc1cc(-c2ccco2)cc(C)c1/C=C/c1cncc(-c2nn[nH]n2)c1` , thanks.
2.67

Please report the recorded inhibition for `NS(=O)(=O)c1ccc(N/C=C2\C(=O)Nc3ccc4ncsc4c32)cc1` .
86.8

For `COc1cc2c(cc1Nc1nc(Nc3ccsc3C(N)=O)c3cc[nH]c3n1)N(C(=O)CN(C)C)CCC2` , what is its reported inhibition?
33.9

* * *

System: Protein kinase C alpha type (Homo sapiens) (UniProt P17252);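 also: each value is the mean percent inhibition of PKC-alpha kinase activity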
Recorded Conditions: at 0.1 µM
Measurement Name: inhibition
The reply must contain the numeric value and, after it, the unit.

[[record]]
structure = "CCn1c(-c2nonc2N)nc2c(C#CC(C)(C)O)ncc(OCC3CCNCC3)c21"
system = "Protein kinase C alpha type (Homo sapiens) (UniProt P17252)"
measurement_name = "inhibition"
result = "-1.9%"

[[record]]
structure = "COc1cc2c(cc1Nc1nc(Nc3ccsc3C(N)=O)c3cc[nH]c3n1)N(C(=O)CN(C)C)CCC2"
system = "Protein kinase C alpha type (Homo sapiens) (UniProt P17252)"
measurement_name = "inhibition"
result = "1.91%"


# inhibition lookup, item `NS(=O)(=O)c1ccc(N/C=C2\C(=O)Nc3ccc4ncsc4c32)cc1`
1.26%

* * *

System: Glycogen synthase kinase-3 alpha (Homo sapiens) (UniProt P49840);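 also: each figure is a mean percent inhibition of GSK3A activity, from a screen of the GSK published kinase inhibitor set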
Sequence (P49840 2-483 limits assumed): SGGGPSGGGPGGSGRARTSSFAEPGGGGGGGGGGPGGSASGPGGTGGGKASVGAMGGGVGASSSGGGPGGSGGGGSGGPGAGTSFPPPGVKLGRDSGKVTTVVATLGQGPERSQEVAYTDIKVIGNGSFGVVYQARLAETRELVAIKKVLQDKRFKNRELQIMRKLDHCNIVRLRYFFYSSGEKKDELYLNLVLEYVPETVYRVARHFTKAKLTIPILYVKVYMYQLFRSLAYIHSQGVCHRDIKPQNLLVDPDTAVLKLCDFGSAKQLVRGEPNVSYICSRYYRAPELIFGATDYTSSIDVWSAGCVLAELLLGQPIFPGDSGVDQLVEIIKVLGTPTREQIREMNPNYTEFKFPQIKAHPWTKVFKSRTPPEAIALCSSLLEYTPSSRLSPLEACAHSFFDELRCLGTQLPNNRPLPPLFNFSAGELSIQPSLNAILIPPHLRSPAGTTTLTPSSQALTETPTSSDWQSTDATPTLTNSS
Recorded Conditions: at 1 µM
inhibition by entry:
Entry rule: numbers only, all in %.

The following compounds have reported results that may help.
[[record]]
structure = "CCn1c(-c2nonc2N)nc2c(C#CC(C)(C)O)ncc(OCC3CCNCC3)c21"
recorded_number = 53.9

[[record]]
structure = "NS(=O)(=O)c1ccc(-c2ccc3c(NC(=O)C4CC4)n[nH]c3c2)cc1"
recorded_number = 8.87

[[record]]
structure = "COc1cccc(COc2cc(-n3cnc4ccccc43)sc2C(N)=O)c1"
recorded_number = 3.48


Consider the compound shown here: `NS(=O)(=O)c1ccc(N/C=C2\C(=O)Nc3ccc4ncsc4c32)cc1` What is its recorded inhibition?
62.8
